pIC50: −log10 of the molar value.
Recorded below: pIC50, system Adenosine kinase (Homo sapiens, UniProt P55263).

Which pIC50 value belongs to Nc1ncnc2c1c(-c1ccc[nH]1)cn2[C@@H]1O[C@H](CO)[C@@H](O)[C@H]1O ? < 4.70

Which pIC50 value belongs to Nc1ncnc2c1c(-c1c[nH]cn1)cn2[C@@H]1O[C@H](CO)[C@@H](O)[C@H]1O ? 4.89

Which pIC50 value belongs to Nc1ncnc2c1c(-c1ccc3c4c(cccc14)CC3)cn2[C@@H]1O[C@H](CO)[C@@H](O)[C@H]1O ? < 5.00

Which pIC50 value belongs to COc1cc(-c2cn([C@@H]3O[C@H](CO)[C@@H](O)[C@H]3O)c3ncnc(N)c23)cc(OC)c1OC ? < 5.00

Which pIC50 value belongs to Nc1ncnc2c1c(-c1cccc3c1Sc1ccccc1S3)cn2[C@@H]1O[C@H](CO)[C@@H](O)[C@H]1O ? < 5.00

Which pIC50 value belongs to Nc1ncnc2c1c(-c1cc[nH]c1)cn2[C@@H]1O[C@H](CO)[C@@H](O)[C@H]1O ? 5.35

Which pIC50 value belongs to Nc1ncnc2c1c(-c1c[nH]nn1)cn2[C@@H]1O[C@H](CO)[C@@H](O)[C@H]1O ? < 4.70

Which pIC50 value belongs to Nc1ncnc2c1c(-c1ccco1)cn2[C@@H]1O[C@H](CO)[C@@H](O)[C@H]1O ? < 5.30
